For each of the binders below, state its % residual fluorescence of labeled mAb.
# Measured target: T1, human CD3 (human, UniProt P07766 23-207; P09693 23-182; P04234 22-171)
# T1 construct: whole, on cells; also called CD3 on Jurkat T cells; CD3 on primary human T cells
# Assay info: flow competition on Jurkat, 100 nM unlabeled mAb; competitor AF488-SK7 1.5 nM
# Description: In order to evaluate whether anti-CD3 monoclonal antibodies bind to the same epitope region, flow cytometry competition experiments on Jurkat cells were performed. To that effect, a fixed concentration of the indicated AF488-labeled mAb were incubated with 100 nM of unlabeled monoclonal antibodies to assess if their binding capacity was impaired in presence of unlabeled mAbs. […] The final product was analyzed by UPLC-SEC to ensure the integrity of the labeled mAb.
Return type: number; implicit unit %.

Hello, please tell me recorded % residual fluorescence of labeled mAb for this one: F332-1E2 (antibody, mouse IgG2a, V domains shown, Sister clone 8C5 shares the same entries; also called F332-1E2-2; F332-1E2 (8C5)) VH: QVQLQQPGAELGKPGTSVKLSCKASGYTFTSYWIHWVKQRPGQGLEWVGNINPNSGSINYNEKFKNKATLTVDKSSSTAYMQLSTLTSEDFAVYYCTRDTSGQYYFDYWGQGTTLTVSS VL: DIVMSQSPSSLAVSAGERVTMSCKSSQSLLNSRTRKNYLAWYQQKPGQSPKLLIYWASTRESGVPDRFTGSGSGTDFTLTISSVQAEDLAVYYCIQSYHLRTFGGGTKLEIK
42

Annotate the binder F332-12F6 (antibody, mouse IgG2a, V domains shown, also called F332-12F6-2) VH: QVQLQQPGAELGKPGTSVKLSCKASGYTFTSYWIHWVKQRPGQGLEWIGNINPNSGSTNYNEKFKSKATLTVDKSSSTAYMQLSTLTSEDSAVYYCTRDISGQYYFDYWGQGTTLTVSS VL: DIVMSQSPSSLAVSAGEKVTMSCKSSQSLLNSRTRKSYLAWYQQKPGQSPKLLIYWASTRESGVPDRFTGSGSGTDFTLTISSVQAEDLAVYYCIQSYNLRTFGGGTKLEIK with its measured % residual fluorescence of labeled mAb.
42

Provide measured % residual fluorescence of labeled mAb value, entry: F332-7E3 (antibody, mouse IgG2a, V domains shown, also called F332-7E3-2) VH: QVQLQQPGAELGKPGTSVKLSCKASGYTFTSYWIHWVKQRPGQGLEWIGNINPNSGSINYNEKFKSKATLTVDKSSSTAYMQLSTLTSEDFAVYYCTRDTSGQYYFDYWGQGTTLTVSS VL: DIVMSQSPSSLAVSAGEKVTMSCKSSQSLLNSRTRKNYLAWYQQKPGQSPKLLIYWASTRESGVPDRFTGSGSGTDFTLTISSVQAEDLAVYYCKQSYHLRTFGGGTKLEIK
45

Determine from records and report % residual fluorescence of labeled mAb for F332-1C9 (antibody, mouse IgG2a, V domains shown, Sister clones 1A10, 5H8, 8B11 share the same entries; also called F332-1C9-2; F332-1C9 (1A10, 5H8, 8B11)) VH: QVQLQQPGAELGKPGTSVNLSCKASGYTFTSYWMHWVKQRPGQGLDWIGNINPNSGTTNYNEKFKSKATLTVDKSSSTAYMQLSTLTSEDSAVYYCTRDISGQYYFDYWGQGTSLTVSS VL: DIVMSQSPSSLAVSAGEKVTMSCKSSQSLLNSRTRKNYLAWYQQKPGQSPKLLIYWASTRESGVPDRFTGSGSGTDFTLIISSVQAEDLAVYYCKQSYSLRTFGGGTKLEIK
45

# return recorded % residual fluorescence of labeled mAb for entry F332-7C5 (antibody, mouse IgG2a, V domains shown, also called F332-7C5-2; F332-7C5 (5E12, 10A8)) VH: QVQLQQPGAELGKPGTSVKLSCKASGYTFTSYWMHWVKQRPGQGLEWIGNINPSSGITNYNERFKNKATLTVDKSSTTAYMQLSILTSEDSAVYYCSRDISGQYYFNFWGQGTTLTVSS VL: DIVMSQSPSSLAVSAGEKVTMSCKSSQSLLNSRTRKNYLAWYQQKPGQSPKLLIYWASTRESGVPDRFTGTGSGTDFTLTISSVQAEDLAVYYCKQSYNLRTFGGGTKLEIK
39
